- System Under Test: Hexokinase-4 (Homo sapiens) + Glucokinase regulatory protein (Homo sapiens) (UniProt P35557+Q14397)
- Sequence (P35557 whole entry, looked up): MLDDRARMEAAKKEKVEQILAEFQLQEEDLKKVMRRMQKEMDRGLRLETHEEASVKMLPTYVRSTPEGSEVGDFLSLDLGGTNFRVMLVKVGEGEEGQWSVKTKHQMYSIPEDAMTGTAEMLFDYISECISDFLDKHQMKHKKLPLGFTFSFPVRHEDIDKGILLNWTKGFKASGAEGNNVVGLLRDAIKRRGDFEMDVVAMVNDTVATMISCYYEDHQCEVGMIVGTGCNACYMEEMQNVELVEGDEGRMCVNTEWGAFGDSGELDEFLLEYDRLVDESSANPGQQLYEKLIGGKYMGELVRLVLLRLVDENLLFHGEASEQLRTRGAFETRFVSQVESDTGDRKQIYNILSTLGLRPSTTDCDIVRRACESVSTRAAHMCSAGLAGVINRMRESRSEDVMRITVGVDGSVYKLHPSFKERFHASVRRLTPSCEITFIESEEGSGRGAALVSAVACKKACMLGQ
- Sequence (Q14397 whole entry, looked up): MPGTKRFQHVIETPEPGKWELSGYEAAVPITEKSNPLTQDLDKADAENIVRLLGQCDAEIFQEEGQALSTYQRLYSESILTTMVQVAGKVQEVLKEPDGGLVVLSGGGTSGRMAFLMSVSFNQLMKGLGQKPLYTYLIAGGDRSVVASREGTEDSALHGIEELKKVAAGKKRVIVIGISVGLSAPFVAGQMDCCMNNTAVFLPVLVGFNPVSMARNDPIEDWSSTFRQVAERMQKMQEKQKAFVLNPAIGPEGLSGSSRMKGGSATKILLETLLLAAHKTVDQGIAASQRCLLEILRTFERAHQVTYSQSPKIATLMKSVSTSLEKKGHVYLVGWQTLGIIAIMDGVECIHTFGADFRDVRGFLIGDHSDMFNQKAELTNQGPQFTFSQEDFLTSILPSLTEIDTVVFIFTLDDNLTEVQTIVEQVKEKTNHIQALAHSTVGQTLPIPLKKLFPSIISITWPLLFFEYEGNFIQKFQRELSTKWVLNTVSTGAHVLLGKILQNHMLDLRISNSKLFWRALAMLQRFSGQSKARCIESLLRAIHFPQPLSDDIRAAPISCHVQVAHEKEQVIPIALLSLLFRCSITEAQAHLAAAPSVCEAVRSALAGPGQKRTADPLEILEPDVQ
- Measurement Notes: qHTS assay for inhibitors of recombinant human GCK-GKRP interaction: Diaphorase-coupled assay (AID 743205)
- Condition Set: G6PDH/diaphorase resorufin fluorescence; series mostly up to 57.5 µM
The source made the active and inactive calls. Calls follow the shape of the dose curve; as a rule, active = well fitted curve in the direction sought with a large enough effect; inconclusive = small, poorly fitted or top-dose-only effect, or another doubt; inactive = no such curve, though single readings can be large or run the other way.
Answer with one of the outcomes active, inactive

Solved entries (count: 4):
mol=Nc1nc2c(ncn2COC(CO)CO)c(=O)[nH]1 group=inactive
mol=NC(=O)NO group=inactive
mol=Cc1ccc(C(=O)Nc2ccc(S(=O)(=O)O)c3cc(S(=O)(=O)O)cc(S(=O)(=O)O)c23)cc1NC(=O)c1cccc(NC(=O)Nc2cccc(C(=O)Nc3cc(C(=O)Nc4ccc(S(=O)(=O)O)c5cc(S(=O)(=O)O)cc(S(=O)(=O)O)c45)ccc3C)c2)c1 group=active
mol=CCOC(=O)C(C)(C)Oc1ccc(Cl)cc1 group=inactive

Now examine the next entry.
For CCCCc1oc2ccccc2c1C(=O)c1cc(I)c(OCCN(CC)CC)c(I)c1 , what call appears in the results of this test?
inactive

---

- Measurement Notes: Quantitative High-Throughput drug screen in 47 multiple myeloma cell lines against the NCATS MIPE library collection: L363_DSMZ cell viability assay (AID 1918984); also: nearly all actives have a fitted effect of over 40% in size
- Condition Set: L363 myeloma viability, CellTiter-Glo ATP luminescence, 48 h; series mostly up to 45.8 µM
Results filed as inconclusive are left out. Calls of active or inactive are those of the source. The call rests on the fitted dose curve; in most records, active means well fitted cell-killing curve with a large enough effect; inconclusive means small, poorly fitted or top-dose-only effect, or effect the other way; inactive means no such curve, though single readings can be large or run the other way.
Parameter call: string, one of active, inactive

Use the examples below as a reference point.
mol=O=C1c2c(O)ccc(O)c2C(=O)c2c(NCCNCCO)ccc(NCCNCCO)c21 group=active
mol=Clc1ccc2c(c1)C(N1CCNCC1)=Nc1ccccc1O2 group=inactive

Hello, I am checking results. What call was entered for CS(=O)(=O)Nc1ccc([N+](=O)[O-])cc1Oc1ccccc1 ?
inactive

---

- Test system: UISO
- Measurement Notes: qHTS assay to identify novel small-molecules to repurpose for Merkel cell carcinoma treatment (AID 1296009); also: nearly all actives have a fitted effect of over 60% in size
- Condition Set: MCC and control cell lines, CellTiter-Glo viability, 72 h; series mostly up to 46 µM
Inconclusive results are not listed. Calls of active or inactive are those of the source. The call rests on the fitted dose curve; in most records, active means well fitted inhibition curve with a large enough effect; inconclusive means small, poorly fitted or top-dose-only effect; inactive means flat fitted curve, though single readings scatter.
Response enum: y (active), n (inactive)

compound=Fc1ccc([C@@H]2CCNC[C@H]2COc2ccc3c(c2)OCO3)cc1 group=n
compound=C[C@@H]1CC(=O)NN=C1c1ccc(NN=C(C#N)C#N)cc1 group=y
compound=O=c1c(O)c(-c2ccc(O)c(O)c2)oc2cc(O)cc(O)c12 group=n
compound=Cn1cnc2c1c(=O)[nH]c(=O)n2C group=n
compound=CCOC(=O)Nc1ccc(NCc2ccc(F)cc2)nc1N group=n
compound="CN1C2CCC1CC(OC(=O)C(CO)c1ccccc1)C2 (stereo unspecified)" group=n
compound=Clc1ccccc1C(c1ccccc1)(c1ccccc1)n1ccnc1 group=n
compound="CCc1cccc2c3c([nH]c12)C(CC)(CC(=O)O)OCC3 (stereo unspecified)" group=n
compound="CC1(CN2CCC(n3c(=O)[nH]c4ccccc43)CC2)OCc2ccccc2-n2cccc21 (stereo unspecified)" group=n
compound=CN(CCOc1ccc(NS(C)(=O)=O)cc1)CCc1ccc(NS(C)(=O)=O)cc1 group=n

I'd appreciate the recorded outcome for CC1COc2c(N3CCN(C)CC3)c(F)cc3c(=O)c(C(=O)O)cn1c23 (stereo unspecified) from this test.
n

What classification did O=C(Nc1ccc([N+](=O)[O-])cc1Cl)c1cc(Cl)ccc1O end up with in this test?
y

What outcome does the record of this test show for CS(=O)(=O)Nc1ccc([N+](=O)[O-])cc1Oc1ccccc1 ?
n

What was the test verdict on CN(C)c1nc(N(C)C)nc(N(C)C)n1 ?
n

Answer briefly: the call reported for CC1(C)O[C@H]2CC(=O)OC[C@]23[C@H]2CC[C@@]4(C)[C@H](c5ccoc5)OC(=O)[C@H]5O[C@]54[C@]2(C)C(=O)C[C@@H]13 in this assay.
n

Which outcome was entered for the compound CC(=O)OCC(CCn1cnc2cnc(N)nc21)COC(C)=O in this test?
n

The measured values listed here are drawn from PubChem BioAssay (NCATS).
